# assay.protocol: TOX21_p53_BLA_p5_viability: Viability Assessment in the Tox21 HCT-116 p53 Agonism Beta-lactamase Assay, Phase 5 (AID 2283600)
Results filed as inconclusive are left out. Active and inactive are the calls of the source. Rule for the calls: active = hit-call score of the fitted dose curve at least 0.9, where 1 is the maximum; inconclusive = response in the unintended direction; inactive = score below 0.9.
Your reply should match one of these outcome classes. YES = active, NO = inactive

Here are 10 compounds together with their reported answers.
{"compound": "CN[C@@H](C)[C@H](O)c1ccccc1", "group": "NO"}
{"compound": "CC(=O)[O][Pb]([c]1ccccc1)([c]1ccccc1)[c]1ccccc1", "group": "YES"}
{"compound": "O=c1oc2ccccc2c(O)c1C1CCCc2ccccc21 (stereo not given)", "group": "NO"}
{"compound": "CCCCC#N", "group": "NO"}
{"compound": "[Cl-].[Cl-].[Sn+2]", "group": "NO"}
{"compound": "CC(=O)C(C)(C)C", "group": "NO"}
{"compound": "CCC1(c2ccccc2)C(=O)NC(=O)N(C)C1=O (stereo not given)", "group": "NO"}
{"compound": "O=C1C=C2C=C[C@@H]3C[C@@]2(O1)[C@H]1CCCCN31", "group": "NO"}
{"compound": "CC(C)CCC(=O)O[C@H]1CC[C@H]2[C@@H]3CCC4=CC(=O)CC[C@]4(C)[C@H]3CC[C@]12C", "group": "NO"}
{"compound": "COC(=O)COc1ccc(Cl)cc1Cl", "group": "NO"}

How did this test come out for CCCN(CCC)C(=O)Cc1c(-c2ccc(Cl)cc2)nc2ccc(Cl)cn12 ?
NO

How did this test come out for [2H]C([2H])([2H])[C@H](N)Cc1ccccc1 ?
NO

How did this test come out for O=C(Cl)OCc1ccccc1 ?
NO

How did this test come out for CCCCCCCCCBr ?
NO

How did this test come out for CCCCCCC[CH2][Sn]([Cl])([Cl])[CH2]CCCCCCC ?
NO

----------
# Read-out: Interleukin-1 alpha (IL1a), IL1A (gene 3552)
# assay.protocol: BSK_LPS_IL1a: BioMAP Diversity Plus: LPS Assay for Interleukin-1 alpha (IL1a) Biomarker Activity (AID 2283080)
# recorded.conditions: primary human HUVEC with PBMC; actives raise or lower the signal
Active and inactive are the calls of the source. Rule for the calls: active = hit-call score of the fitted dose curve at least 0.9, where 1 is the maximum; inactive = score below 0.9.
Your reply should match one of these outcome classes. active, inactive

{"molecule": "Clc1ccc(-c2ccccc2)cc1", "group": "inactive"}
{"molecule": "CC(C)(C)C(O)C(Oc1ccc(-c2ccccc2)cc1)n1cncn1 (stereo not drawn)", "group": "inactive"}
{"molecule": "c1ccc(Nc2ccc3ccccc3c2)cc1", "group": "inactive"}
{"molecule": "C=CC(=O)OCC(CC)CCCC (stereo not drawn)", "group": "inactive"}
{"molecule": "CC(C)(c1cc(Cl)c(O)c(Cl)c1)c1cc(Cl)c(O)c(Cl)c1", "group": "active"}

Switching to the query record.
How did this test come out for CCCCCCCCCCCC#N ?
active

----------
# assay.protocol: CCTE_Shafer_MEA_acute_burst_percentage_std: CCTE's Neural Acute Assay for Standard Deviation of Burst Percentage, Shafer Lab (AID 2284018);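 note: fitted in the negative direction so actives lower burst percentage SD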
# Experimental: CCTE_Shafer_MEA_acute assay is conducted using Axion Biosystems 48 well microelectrode array (MEA) plates and Maestro recording system. Each well of the MEA plate contains a grid of 16 microelectrodes embedded in the culture surface. Electrically active cells, such as neurons, can be cultured over the electrodes, and electrical activity in these cells can be recorded extracellularly. […] The standard deviation of the burst percentages across electrodes is calculated to report a well-level value. […]
Activity calls are given as the source filed them. Rule for the calls: active = hit-call score of the fitted dose curve at least 0.9, where 1 is the maximum; inactive = score below 0.9.
Your reply should match one of these outcome classes. active, inactive

Here are 4 compounds together with their reported answers.
{"compound": "CC1(C)[C@H](C=C(Cl)Cl)[C@@H]1C(=O)O[C@@H](C#N)c1cccc(Oc2ccccc2)c1", "group": "inactive"}
{"compound": "[Cd+2].[Cl-].[Cl-]", "group": "inactive"}
{"compound": "COc1ccc(CO)cc1", "group": "inactive"}
{"compound": "Cc1ccc(OP(=O)(Oc2ccc(C)cc2)Oc2ccc(C)cc2)cc1 (tested in a mixture with another compound)", "group": "active"}

Switching to the query record.
How did this test come out for Oc1ccc(C2(c3ccc(O)cc3)c3ccccc3-c3ccccc32)cc1 ?
active
